- Test system: M. haemo 43411
- measurement-description: Dilution antimicrobial susceptibility test (M07-A8), M. haemolytica
- Assay type: cell-based
- condition-description: Mannheimia haemolytica; antibacterial activity by dilution susceptibility test, isolate 43411
Known MIC of a selection of molecules
Answer in µg/mL, number only, no unit symbol.

Illustrative cases are given below, each with its answer.
molecule | readout-kind | obs-value
CO/N=C(\C(=O)N[C@@H]1C(=O)N2C(C(=O)O)=C(Cc3cccc(N(C(=O)CS)C(C)C)c3)CS[C@H]12)c1csc(N)n1 [Example 13] | MIC | 0.06
CNS(=O)(=O)c1cc(C)cc(CC2=C(C(=O)O)N3C(=O)[C@@H](NC(=O)/C(=N\OC)c4csc(N)n4)[C@H]3SC2)c1 [Example 27] | MIC | 0.008

We now examine a further molecule.
input: Using the record for CO/N=C(\C(=O)N[C@@H]1C(=O)N2C(C(=O)O)=C(Cc3c(C)cc(CSC(C)=O)cc3C)CS[C@H]12)c1csc(N)n1 [Example 6] , report its MIC.
output: 0.5

====

- System: P. multo 43719
- measurement-description: Dilution antimicrobial susceptibility test (M07-A8), P. multocida
- Assay type: cell-based
- condition-description: Pasteurella multocida; antibacterial activity by dilution susceptibility test, isolate 43719
readout-kind: MIC
Answers without a unit are incomplete; give the number and then its unit.

Illustrative cases are given below, each with its answer.
query-smiles | target-entity | MIC
CO/N=C(\C(=O)N[C@@H]1C(=O)N2C(C(=O)O)=C(Cc3cccc(N(C(=O)CS)C(C)C)c3)CS[C@H]12)c1csc(N)n1 | P. multo 43719 | 0.03 µg/mL
CO/N=C(\C(=O)N[C@@H]1C(=O)N2C(C(=O)O)=C(Cc3cc(NS(C)(=O)=O)c(C)cc3C)CS[C@H]12)c1csc(N)n1 | P. multo 43719 | 0.125 µg/mL
CO/N=C(\C(=O)N[C@@H]1C(=O)N2C(C(=O)O)=C(Cc3cccc(NC(=O)CSC(C)=O)c3C)CS[C@H]12)c1csc(N)n1 | P. multo 43719 | 0.06 µg/mL
CNS(=O)(=O)c1cc(C)cc(CC2=C(C(=O)O)N3C(=O)[C@@H](NC(=O)/C(=N\OC)c4csc(N)n4)[C@H]3SC2)c1 | P. multo 43719 | 0.015 µg/mL
CO/N=C(\C(=O)N[C@@H]1C(=O)N2C(C(=O)O)=C(Cc3cc(S(=O)(=O)NCCSC(C)=O)ccc3C)CS[C@H]12)c1csc(N)n1 | P. multo 43719 | 0.25 µg/mL

We now examine a further compound.
input: Using the record for "CO/N=C(\C(=O)N[C@@H]1C(=O)N2C(C(=O)O)=C(Cc3c(C)cc(CSC(C)=O)cc3C)CS[C@H]12)c1csc(N)n1" , report its MIC.
output: 0.25 µg/mL

====

- Test system: M. haemo 43411
- measurement-description: Dilution antimicrobial susceptibility test (M07-A8), M. haemolytica
- Assay type: cell-based
- condition-description: Mannheimia haemolytica; antibacterial activity by dilution susceptibility test, isolate 43411
readout-kind: MIC

Illustrative cases are given below, each with its answer.
query-smiles | obs-value
CO/N=C(\C(=O)N[C@@H]1C(=O)N2C(C(=O)O)=C(Cc3cc(CSC(C)=O)ccc3C)CS[C@H]12)c1csc(N)n1 | 0.25 µg/mL
CNS(=O)(=O)c1ccc(C)c(CC2=C(C(=O)O)N3C(=O)[C@@H](NC(=O)/C(=N\OC)c4csc(N)n4)[C@H]3SC2)c1 | 0.008 µg/mL
CO/N=C(\C(=O)N[C@@H]1C(=O)N2C(C(=O)O)=C(Cc3cccc(CSC(C)=O)c3C)CS[C@H]12)c1csc(N)n1 | 0.06 µg/mL
CO/N=C(\C(=O)N[C@@H]1C(=O)N2C(C(=O)O)=C(Cc3ccc(S(C)(=O)=O)cc3C)CS[C@H]12)c1csc(N)n1 | 0.06 µg/mL
CO/N=C(\C(=O)N[C@@H]1C(=O)N2C(C(=O)O)=C(Cc3cc(S(=O)(=O)NCCSC(C)=O)ccc3C)CS[C@H]12)c1csc(N)n1 | 0.25 µg/mL

We now examine a further molecule.
input: Using the record for "CO/N=C(\C(=O)N[C@@H]1C(=O)N2C(C(=O)O)=C(Cc3cccc(NC(=O)CSC)c3)CS[C@H]12)c1csc(N)n1" , report its MIC.
output: 0.03 µg/mL

====

Known MIC of a selection of compounds
- Test system: M. haemo 43411
- measurement-description: Dilution antimicrobial susceptibility test (M07-A8), M. haemolytica
- Assay type: cell-based
- condition-description: Mannheimia haemolytica; antibacterial activity by dilution susceptibility test, isolate 43411
Answer in µg/mL, number only, no unit symbol.

Illustrative cases are given below, each with its answer.
query-smiles | obs-value
CO/N=C(\C(=O)N[C@@H]1C(=O)N2C(C(=O)O)=C(Cc3cc(C)cc(NS(C)(=O)=O)c3)CS[C@H]12)c1csc(N)n1 | 8
CCN(CCSC(C)=O)S(=O)(=O)c1cccc(CC2=C(C(=O)O)N3C(=O)[C@@H](NC(=O)/C(=N\OC)c4csc(N)n4)[C@H]3SC2)c1 | 0.125
CO/N=C(\C(=O)N[C@@H]1C(=O)N2C(C(=O)O)=C(Cc3ccc(CSC(C)=O)cc3C)CS[C@H]12)c1csc(N)n1 | 0.25
CO/N=C(\C(=O)N[C@@H]1C(=O)N2C(C(=O)O)=C(Cc3cc(NC(=O)CSC(C)=O)ccc3C)CS[C@H]12)c1csc(N)n1 | 0.06
CO/N=C(\C(=O)N[C@@H]1C(=O)N2C(C(=O)O)=C(Cc3cccc(S(=O)(=O)N(C)C)c3)CS[C@H]12)c1csc(N)n1 | 0.008

We now examine a further compound.
input: Using the record for "CO/N=C(\C(=O)N[C@@H]1C(=O)N2C(C(=O)O)=C(Cc3cccc(NC(=O)CSC(C)=O)c3)CS[C@H]12)c1csc(N)n1" , report its MIC.
output: 0.03

====

- System: M. haemo 43411
- measurement-description: Dilution antimicrobial susceptibility test (M07-A8), M. haemolytica
- Type: cell-based
- condition-description: Mannheimia haemolytica; antibacterial activity by dilution susceptibility test, isolate 43411
// boundary case: MIC equal to 0.06 µg/mL maps to not fulfilled; strictly smaller maps to fulfilled

query-smiles | group-label
CO/N=C(\C(=O)N[C@@H]1C(=O)N2C(C(=O)O)=C(Cc3cccc(NS(C)(=O)=O)c3)CS[C@H]12)c1csc(N)n1 | fulfilled

input: Would you kindly verify if MIC of "CNS(=O)(=O)c1cc(CC2=C(C(=O)O)N3C(=O)[C@@H](NC(=O)/C(=N\OC)c4csc(N)n4)[C@H]3SC2)cc(OC)c1" is strictly less than 0.06 µg/mL?
output: fulfilled

input: Would you kindly verify if MIC of "CO/N=C(\C(=O)N[C@@H]1C(=O)N2C(C(=O)O)=C(Cc3cccc(N(C)S(C)(=O)=O)c3)CS[C@H]12)c1csc(N)n1" is strictly less than 0.06 µg/mL?
output: fulfilled

input: Would you kindly verify if MIC of "CCCN(C(=O)CSC(C)=O)c1ccc(CC2=C(C(=O)O)N3C(=O)[C@@H](NC(=O)/C(=N\OC)c4csc(N)n4)[C@H]3SC2)cc1" is strictly less than 0.06 µg/mL?
output: not fulfilled

input: Would you kindly verify if MIC of "CO/N=C(\C(=O)N[C@@H]1C(=O)N2C(C(=O)O)=C(Cc3c(C)c(CO)cc(CSC(C)=O)c3C)CS[C@H]12)c1csc(N)n1" is strictly less than 0.06 µg/mL?
output: not fulfilled

input: Would you kindly verify if MIC of "CO/N=C(\C(=O)N[C@@H]1C(=O)N2C(C(=O)O)=C(Cc3cc(NS(C)(=O)=O)cc(OC)c3)CS[C@H]12)c1csc(N)n1" is strictly less than 0.06 µg/mL?
output: not fulfilled

input: Would you kindly verify if MIC of "CO/N=C(\C(=O)N[C@@H]1C(=O)N2C(C(=O)O)=C(Cc3c(C)ccc(CSC(C)=O)c3C)CS[C@H]12)c1csc(N)n1" is strictly less than 0.06 µg/mL?
output: not fulfilled

====

Known MIC of a selection of molecules
- Tested on: P. multo 43719
- measurement-description: Dilution antimicrobial susceptibility test (M07-A8), P. multocida
- Type: cell-based
- condition-description: Pasteurella multocida; antibacterial activity by dilution susceptibility test, isolate 43719
Answer in µg/mL, number only, no unit symbol.

Illustrative cases are given below, each with its answer.
query-smiles | value-units | MIC
CNS(=O)(=O)c1ccc(OC)c(CC2=C(C(=O)O)N3C(=O)[C@@H](NC(=O)/C(=N\OC)c4csc(N)n4)[C@H]3SC2)c1 | µg/mL | 0.25
CO/N=C(\C(=O)N[C@@H]1C(=O)N2C(C(=O)O)=C(Cc3cccc(NC(=O)CSC(C)=O)c3)CS[C@H]12)c1csc(N)n1 | µg/mL | 0.06
CO/N=C(\C(=O)N[C@@H]1C(=O)N2C(C(=O)O)=C(Cc3cc(CSC(C)=O)ccc3C)CS[C@H]12)c1csc(N)n1 | µg/mL | 0.125

input: Recall the recorded MIC for "CO/N=C(\C(=O)N[C@@H]1C(=O)N2C(C(=O)O)=C(Cc3cccc(CSC(C)=O)c3C)CS[C@H]12)c1csc(N)n1" with P. multo 43719 and state it.
output: 0.03

input: Recall the recorded MIC for "CO/N=C(\C(=O)N[C@@H]1C(=O)N2C(C(=O)O)=C(Cc3cccc(N(C)S(C)(=O)=O)c3)CS[C@H]12)c1csc(N)n1" with P. multo 43719 and state it.
output: 0.03

input: Recall the recorded MIC for "CO/N=C(\C(=O)N[C@@H]1C(=O)N2C(C(=O)O)=C(Cc3c(C)c(CO)cc(CSC(C)=O)c3C)CS[C@H]12)c1csc(N)n1" with P. multo 43719 and state it.
output: 0.06
